target: pooled human IgG (human IgG1,2,3 and 4)
Consider the following proteins and their measured Enzyme Activity Endpoint Assay (purified): Fab′2 readings.
Number in ng/µL, nothing else.

Check out these entries, answers already filled in.
protein="PRT-447 (protein) MVTSVWTKGVTPPTDFIKGEDVFHAPYKAGQGWYDITKAFDGGDDLLCGAATAGNMLHWWFDQNKDQIEAYLKEHPEKQKINFNGEQMFDVKEAIDTKDDQTNSELFNYFKEKAFPYLSTKHLGVFPDHVLDMFINGYRLSLTNHGPTPVKEGSKDPRGGIFDAVFTRGDQSKLLTSRHDFKEKTLKEISDLIKQELTEGKALALSHTYANVRINHVINLWGADFDSNGNLEAIYVTDSDSNASIGMKKYFVGVNSAGKVAISAKEIEDDNIGAQVLGLFTLSTGQDIWNQTNLEHHHHHH" value_reported=376
protein="PRT-349 (protein) MSQTEDSESLQRLRDIEDFQAEKKDQNVVYTKWLDGVDVKDHDFRKIVDGNIAYYATPLLNGRGLYDINKDFNRDSDKCAAAVAANMFHYWLDINRDNVDRFLRQNPEKHGIIELPDGQLKLSDFLNTYESDHGYRDKSKLFDFISENFNGPVWTDKLLDNYINGYAYNYKYGRTIEDPTKNTSKINFFKEVFNEKILTNNHSIRNQNELSVLLSEALYTGKAIGLSYGPAGLRHSLGHIISVWGADLDADGNVVAIYVTDSDDKKLTIGDERVGLKRYKISTDDENRLRLTAYEETHNTGGQVRGLWTLDTGKYAWADYFDKTEQTGTDQAEQ" value_reported=677
protein="PRT-361 (protein) MSQTEDSESLQRLRDIEDFQAEKKKQNVVYTKWLDGVDVKDHDFRKIVDGNSAYYATPLLNGRGFYDINKDFNRDSDKCAAAVAANMFHYWLDRNRDNVDRFLRQNPEKHGIIELPDGQLKLSDFLNTYESDDGYRDKSKLFDFISENFNGPVWTDKLLDNYINGYAYNYKYGRTIEDPTKNTSKINFFKEVFNEKILTNNHSIRNQNEFSVLLIEALYTGKAIGLSYGPAGLRHSLGHIISVWGADLDADGNVVAIYVTDSDDKKLTIGDERVGLKRYKISTDDEGRLRLTAYEETHNTGGQIRGLWTLDTGKQAWADYFDKTEQTGTDQAEQ" value_reported=86
protein="PRT-362 (protein) MSQTEDSESLQRLRDIEDFQAEKKKQNVVYTKWLDGVDVKDHDFRKIVDGNSAYYATPLLNGRGFYDINKDFNRDSDKCAAAVAANMFHYWLDRNRDNVDRFLRQNPEKHGIIELPDGQLKLSDFLNTYESDDGYRDKSKLFDFISENFNGPVWTDKLLDNYINGYAYNSKYGRTIEDPTKNTSKINFFKEVFNEKILTNNHSIRNQNEFSVLLIEALYTGKAIGLSYGPAGLRHGLGHIISVWGADLDADGNVVAIYVTDSDDKKLTIGDERVGLKRYKISTDDEGRLRLTAYEETHNTGGQIRGLWTLDTGKQAWADYFDKTEQTGTDQAEQ" value_reported=720
protein="PRT-369 (protein) MSQTEDSESLQRLRDIEDFQAEKKDQNVVYTKWLDGVDVKDHDFRKIVDGNIAYYATPLLNGRGLYDINKDFNRDNDKCAAAVAANMFHYWLDRNRDNVDRFLRQNPEKHGIIELPDGQLKLSDFLNTYESDDGYRDKSKLFDFISENFNGPVWTDKLLDNYINGYAYNYKYGRTIEDSTKNTSKINFFKEVFNEKILTNNHSIRNQNELSVLLSEALYTGKAIGLSYGPAGLRHSLGHIISVWGADLDADGNVVAIYVTDSDDKKLTIGDERVGLKRYKISTDDEGRLRLTAYEETHNTGGQVRGLWTLDTGKQAWADYFDKTEQTGTDQAEQ" value_reported=259

Retrieve Enzyme Activity Endpoint Assay (purified): Fab′2 measured for PRT-374 (protein) MSQTEDSESLQRLRDIEDFQAEKKKQNVVYTKWLDGVDVKDHDFRKIVDGNEAYYATPLLNGRGFYDINKDFNRDNDKCAAAVAANMFHYWLDRNRDNVDRFLRQNPEKHGIIELPDGQLKLSDFLNTYESDDGYRDKSKLFDFISENFNGPVWTDKLLDNYINGYAYNYKYGRTIEDSTKNTSKINFFKEVFNEKILTNNHSIRNQNELSVLLSEALYTGKAIGLSYGPAGLRHSLGHIISVWGADLDADGNVVAIYVTDSDDKKLTIGDERVGLKRYKISTDDEGRLRLTAYEETHNTGGQIRGLWTLDTGKQAWADYFDKTEQTGTDQAEQ and print it.
985

Query Enzyme Activity Endpoint Assay (purified): Fab′2 for PRT-356 (protein) MSQTEDSESLQRLRDIEDFQAEKEKQNVVYTKWLDGVDVKDHDFRKIVDGNSAYYATPLLNGRGFYDINKDFNRDSDKCAAAVAANMFHYWLDRNRDNVDRFLRQNPEKHGIIELPDGQLKLSDFLNTYESDDGYRDKSKLFDFISNNFNGPVWTDKLLDNYINGYAYNYKYGRTIEDPTKNTSKINFFKEVFNEKILTNNHSIRNQNEFSVLLSEALYTGKAIGLSYGPAGLRHSLGHIISVWGADLDADGNVVAIYVTDSDDKKLTIGDERVGLKRYKISTDDEGRLRLTAYEETHNTGGQVRGLWTLDTGKQAWADYFDKTEQTGTDQAEQ
780

Supply Enzyme Activity Endpoint Assay (purified): Fab′2 value. Item: PRT-470 (protein) MVTSVWTKGVTPPTDFIYGEDVLHAPYKAGQGWYDITKTFNGKDDLLCGAATAGNMLHWWFDQNKEQIENYLKKHPEKQKINFNGEQMFDVKEAIDTKDSQLDSKLFEYFKEKAFPYLSTKHLGVFPDHVIDMFINGYRLSLTNHGPTPVKRGSKDPRGGIFDAVFTRGDQSKLLTNRHDFKEKTLKEISDLIKQELTEGKALGISHTYANVRINHVINLWGADFDAEGNLEAIYVTDSDSNASIGMKKYFVGVNSNGKVAISAKEIEEDNIGAQVLGLFTLSTGQDIWNQTNLEHHHHHH
1080
